Target: human CD123 on CHO cells expressing human CD123 (human) (UniProt P26951)
Sequence (P26951 19-378): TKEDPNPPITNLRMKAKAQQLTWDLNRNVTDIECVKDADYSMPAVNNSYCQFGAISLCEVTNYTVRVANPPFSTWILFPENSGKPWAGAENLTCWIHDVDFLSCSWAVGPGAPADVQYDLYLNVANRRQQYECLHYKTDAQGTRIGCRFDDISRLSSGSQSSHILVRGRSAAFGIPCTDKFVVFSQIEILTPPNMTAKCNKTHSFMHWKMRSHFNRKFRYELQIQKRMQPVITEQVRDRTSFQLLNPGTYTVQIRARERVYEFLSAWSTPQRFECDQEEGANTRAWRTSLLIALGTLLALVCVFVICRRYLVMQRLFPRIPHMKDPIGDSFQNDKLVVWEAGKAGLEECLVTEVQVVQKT
Assay: flow cytometry on CHO cells expressing human CD123, 4-parameter fit (direct binding; column headed IC50)
Listed below: EC50 (half-maximal binding concentration) values for each entry.
OUTCOME_MEASURE: EC50 (half-maximal binding concentration) (nM)

{"BINDER": "h32716-3-1 IgG (antibody, V domains shown) VH: QVQLVQSGAEVKKPGSSVKVSCKASGYIFTNYGMNWVKQAPGQGFKWMGWINTYTGESTYSADFKGRFTFTLDESTSTAYMELSSLRSEDTAVYYCARSGGYDPMDYWGQGTLVTVSS VL: DIVMTQSPDSLAVSLGERATINCRASESVDNYGNTFMHWYQQKPGQPPKLLIYRASNLESGVPDRFSGSGSGTDFTLTISSLQAEDVAVYYCQQSNEDPPTFGQGTRLEIK", "NUMBER": 10}
{"BINDER": "h32716-4-2 IgG (antibody, V domains shown) VH: QVQLVQSGPELKKPGASVKVSCKASGYIFTNYGMNWVRQAPGQGLEWMGWINTYTGESTYSADFKGRFVFSLDTSVSTAYLQISSLKAEDTAVYYCARSGGYDPMDYWGQGTLVTVSS VL: DIQMTQSPSSLSASVGDRVTITCRASESVDNYGNTFMHWYQQKPGKAPKLLIYRASNLESGVPSRFSGSGSGTDFTFTISSLQPEDIATYYCQQSNEDPPTFGQGTKVEIK", "NUMBER": 6.8}
{"BINDER": "h32716-2-1 IgG (antibody, V domains shown) VH: QVQLVQSGAEVKKPGSSVKVSCKASGYIFTNYGMNWVKQAPGQGLEWMGWINTYTGESTYSADFKGRFTFTLDESTSTAYMELSSLRSEDTAVYYCARSGGYDPMDYWGQGTLVTVSS VL: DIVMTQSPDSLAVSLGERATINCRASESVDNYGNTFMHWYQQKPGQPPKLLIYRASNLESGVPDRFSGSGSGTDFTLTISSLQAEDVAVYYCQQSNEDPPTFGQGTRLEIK", "NUMBER": 11}
{"BINDER": "h32716-6-2 IgG (antibody, V domains shown) VH: QVQLVQSGPELKKPGASVKVSCKASGYIFTNYGMNWVKQAPGQGFKWMGWINTYTGESTYSADFKGRFVFSLDTSVSTAYLQISSLKAEDTAVYYCARSGGYDPMDYWGQGTLVTVSS VL: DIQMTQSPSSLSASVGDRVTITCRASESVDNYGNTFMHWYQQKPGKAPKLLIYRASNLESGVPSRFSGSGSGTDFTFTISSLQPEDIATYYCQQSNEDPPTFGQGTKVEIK", "NUMBER": 11}
